# Measured target: BCL6 (Homo sapiens, UniProt P41182)
# Construct: endogenous in cells; host or cells: T47D breast cancer epithelial cells
# Assay details: Immunofluorescence protocol for high content imaging of BCL6 (degradation) in T47D cells, 3 days compound treatment
# Assay type: cell-based
# Experimental conditions: T47D cells, 3 days compound treatment, read-out: Mean Dmax (%)** category
# Lookup of reported Dmax keyed by entry
Reported metric: Dmax

compound="CCn1c(=O)c(OCC(=O)NC)cc2cc(Nc3nc(N4CCC(O[C@H]5C[C@H](N6CCC(c7ccc8c(c7)C(=O)N(C7CCC(=O)NC7=O)C8=O)CC6)C5)CC4)ncc3Cl)ccc21 (some centres unmarked) [Compound 5]" reported_metric=Dmax recorded_measurement="≥ 70%"
compound="CNC(=O)COc1cc2cc(Nc3nc(N4CCC(O[C@H]5C[C@H](N6CCC(c7ccc8c(c7F)CN(C7CCC(=O)NC7=O)C8=O)CC6)C5)CC4)ncc3Cl)ccc2n(C(C)C)c1=O (some centres unmarked) [Compound 81]" reported_metric=Dmax recorded_measurement="50 to 70%"
compound="CNC(=O)COc1cc2cc(Nc3nc(N4CCC(CN5CCC6(CN(c7cc8c(c(OC)c7)C(=O)N(C7CCC(=O)NC7=O)C8)C6)C(F)(F)C5)CC4)ncc3Cl)ccc2n(C(C)C)c1=O (centres unmarked) [Compound 101]" reported_metric=Dmax recorded_measurement="50 to 70%"
compound="CNC(=O)COc1cc2cc(Nc3nc(N4CCC(C(C)(C)N5CCC6(CCN(c7ccc8c(c7)CN(C7CCC(=O)NC7=O)C8=O)C6)C5)CC4)ncc3Cl)ccc2n(C(C)C)c1=O (centres unmarked) [Compound 53]" reported_metric=Dmax recorded_measurement="50 to 70%"
compound="CNC(=O)COc1cc2cc(Nc3nc(N4CCC(O[C@H]5C[C@H](N6CC[C@H](c7ccc8c(c7F)CN([C@H]7CCC(=O)NC7=O)C8=O)C(C)(C)C6)C5)CC4)ncc3Cl)ccc2n(C(C)C)c1=O [Compound 210]" reported_metric=Dmax recorded_measurement="≥ 70%"
